Where these numbers come from: ChEMBL document CHEMBL1135915

Here the recorded Ki is given for each entry.
Target: Alpha-1D adrenergic receptor (Homo sapiens, UniProt P25100)
Sequence (P25100 whole entry): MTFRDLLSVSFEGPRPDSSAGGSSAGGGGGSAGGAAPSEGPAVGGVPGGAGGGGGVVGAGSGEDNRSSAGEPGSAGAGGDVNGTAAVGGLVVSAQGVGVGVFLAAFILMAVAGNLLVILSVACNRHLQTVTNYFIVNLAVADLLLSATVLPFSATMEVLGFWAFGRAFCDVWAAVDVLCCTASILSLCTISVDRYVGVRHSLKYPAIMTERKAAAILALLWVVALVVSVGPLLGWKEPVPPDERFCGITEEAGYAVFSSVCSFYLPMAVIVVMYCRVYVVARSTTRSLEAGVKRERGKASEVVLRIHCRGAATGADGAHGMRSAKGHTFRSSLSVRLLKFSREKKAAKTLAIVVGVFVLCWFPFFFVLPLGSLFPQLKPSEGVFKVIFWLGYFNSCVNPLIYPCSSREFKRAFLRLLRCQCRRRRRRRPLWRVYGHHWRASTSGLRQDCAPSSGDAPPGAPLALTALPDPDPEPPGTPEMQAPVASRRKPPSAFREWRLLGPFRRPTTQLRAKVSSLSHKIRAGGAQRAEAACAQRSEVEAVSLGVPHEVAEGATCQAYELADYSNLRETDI
Assay: Affinity constant on CHO cells expressing Human recombinant Alpha-1D adrenergic receptor
Quick note: give the figure in nM, leave out the unit.

Please review the entries below; each comes with its answer.
| molecule | testedTarget | unitSymbol | Ki |
| --- | --- | --- | --- |
| COc1cccc(OC)c1OCCNCC1CC(c2ccccc2)c2ccccc2S1 (stereo unspecified) | Alpha-1D adrenergic receptor (Homo sapiens, UniProt P25100) | nM | 0.437 |
| COc1cccc(OC)c1OCCNC[C@@H]1C[C@H](c2ccccc2)c2ccccc2O1 | Alpha-1D adrenergic receptor (Homo sapiens, UniProt P25100) | nM | 0.0891 |
| COc1cccc(OC)c1OCCNCC1CC(c2ccccc2)c2ccccc2C1=O (stereo unspecified) | Alpha-1D adrenergic receptor (Homo sapiens, UniProt P25100) | nM | 0.182 |
| COc1cccc(OC)c1OCCNC[C@H]1C[C@H](c2ccccc2)c2ccccc2S1 | Alpha-1D adrenergic receptor (Homo sapiens, UniProt P25100) | nM | 22.9 |
| COc1cccc(OC)c1OCCNCCOc1ccccc1Cc1ccccc1 | Alpha-1D adrenergic receptor (Homo sapiens, UniProt P25100) | nM | 3.63 |

From here, focus on the item given below.
What the record says about COc1cccc(OC)c1OCCNCC1Cc2ccccc2C(c2ccccc2)C1 (stereo unspecified) : Ki is 17
